Tested on: TK-10
Assay: GI50, drug alone; higher = less potent
Settings: treatment: drug alone; 5 days
ASSAY ENDPOINT: GI50, drug alone (µM)

# COMPOUND, QUANTITY UNIT, VALUE PREFIX, MEASUREMENT
measured = [
    ("CC[C@H](Nc1ncnc2[nH]cnc12)c1nc2cccc(F)c2c(=O)n1-c1ccccc1 [CAL-101 (GS-1101)]", "µM", ">", 10),
    ("CC(C)(O)CC(=O)NCCn1ccc2ncnc(Nc3ccc(Oc4cccc(C(F)(F)F)c4)c(Cl)c3)c21 [TAK-285]", "µM", "=", 3.95),
    ("O=C(NOCC(O)CO)c1cc(Br)c(F)c(F)c1Nc1ccc(I)cc1F (stereo not given)", "µM", "=", 2.84),
    ("CN1C(=O)C(Cc2c[nH]c3ccccc23)NC1=S (stereo not given) [Necrostatin-1]", "µM", ">", 10),
    ("C[C@@H]1CN(CC(=O)Nc2ccc3c(c2)Cc2cccc(-c4cc(=O)cc(N5CCOCC5)o4)c2S3)C[C@H](C)O1", "µM", ">", 10),
    ("CN(C)CC[C@H](CSc1ccccc1)Nc1ccc(S(=O)(=O)NC(=O)c2ccc(N3CCN(Cc4ccccc4-c4ccc(Cl)cc4)CC3)cc2)cc1[N+](=O)[O-] [ABT-737]", "µM", "=", 4.57),
    ("O=c1cc(N2CCOCC2)oc2c(-c3cccc4c3sc3ccccc34)cccc12", "µM", "=", 9.09),
    ("CNC(=O)c1ccccc1Nc1nc(Nc2ccc(N3CCOCC3)cc2OC)ncc1Cl [NVP-TAE226]", "µM", "=", 0.551),
    ("Cn1cnc(-c2cc3nccc(Oc4ccc(NC(=S)NC(=O)Cc5ccccc5)cc4F)c3s2)c1 [MGCD-265]", "µM", ">", 10),
    ("CN(C[C@@H]1COCCO1)S(=O)(=O)Nc1ccc2ccc3ncc(-c4cnn(C)c4)cc3c(=O)c2c1 [MK-2461]", "µM", ">", 10),
    ("c1ccc2c(-c3cnn4cc(-c5ccc(N6CCNCC6)cc5)cnc34)ccnc2c1", "µM", "=", 7.73),
    ("CCn1c(-c2nonc2N)nc2c(C#CC(C)(C)O)ncc(OC[C@H]3CCCNC3)c21", "µM", "=", 4.51),
    ("O=c1cc(-c2cccc3c2Sc2ccccc2S3)oc(N2CCOCC2)c1", "µM", ">", 10),
    ("FC(F)(F)c1ccc(Nc2nc3cc(Oc4ccnc(-c5ncc(C(F)(F)F)[nH]5)c4)ccc3[nH]2)cc1 [Raf265 derivative]", "µM", ">", 10),
    ("COc1cc2ncnc(Nc3ccc(F)c(Cl)c3)c2cc1NC(=O)/C=C/CN1CCCCC1", "µM", "=", 0.146),
]
